IC50 values for the compounds below.
# experimental target: Interleukin-23 receptor (Homo sapiens, UniProt Q5VWK5)
# Sequence (Q5VWK5 whole entry): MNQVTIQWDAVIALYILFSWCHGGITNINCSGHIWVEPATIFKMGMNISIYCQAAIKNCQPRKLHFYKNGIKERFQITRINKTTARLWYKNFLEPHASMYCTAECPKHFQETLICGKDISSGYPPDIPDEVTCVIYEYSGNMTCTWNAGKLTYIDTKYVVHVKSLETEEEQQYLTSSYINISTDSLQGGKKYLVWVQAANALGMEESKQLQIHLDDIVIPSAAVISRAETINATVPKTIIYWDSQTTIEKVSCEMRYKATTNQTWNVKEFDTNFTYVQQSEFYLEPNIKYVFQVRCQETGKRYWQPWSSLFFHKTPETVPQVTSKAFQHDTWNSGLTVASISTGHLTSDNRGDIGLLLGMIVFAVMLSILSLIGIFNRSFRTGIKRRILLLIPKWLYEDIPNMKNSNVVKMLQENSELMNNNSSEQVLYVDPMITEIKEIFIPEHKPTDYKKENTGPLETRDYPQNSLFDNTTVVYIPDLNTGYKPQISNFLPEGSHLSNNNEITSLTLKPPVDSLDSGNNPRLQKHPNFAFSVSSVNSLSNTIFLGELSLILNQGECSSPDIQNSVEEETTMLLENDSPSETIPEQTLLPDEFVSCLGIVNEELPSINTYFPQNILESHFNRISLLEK
# assay overview: Inhibition of interleukin-23 binding to human interleukin-23 receptor incubated for 2 hrs by competitive binding ELISA
*1 amine or outer side, *2 acyl side, *3 side chain or, on linkers, in order; H or OH if unused. Where a SMILES comes first, the peptide text is derived from it. Bridges are numbered along the chain shown (N, C = ends). [ ]: non-standard residue; d: D form. Abu(4-yl) = O=C([C@H](CC[*:3])N[*:1])[*:2]; 2Nal = N[C@@H](Cc1ccc2ccccc2c1)C(=O)O; AEF = NCCOc1ccc(C[C@H](N)C(=O)O)cc1; Aib = CC(C)(N)C(=O)O

Observe how each entry below is paired with its result.
[
  {
    "compound": "COc1ccc(C[C@H](NC(=O)[C@H]2NC(=O)[C@H](CCC(N)=O)NC(=O)[C@H](Cc3c[nH]c4ccccc34)NC(=O)[C@H]([C@@H](C)O)NC(=O)[C@H](CCC(N)=O)NC(=O)[C@@H](NC(C)=O)CCSC2(C)C)C(=O)N[C@@H](Cc2ccc3ccccc3c2)C(=O)N[C@@](C)(CCCCN)C(=O)N[C@@H](CCCCNC(C)=O)C(=O)N[C@@H](CC(N)=O)C(=O)NCC(N)=O)cc1",
    "IC50": "25 to 100 nM"
  },
  {
    "compound": "CC(C)[C@H](NC(=O)[C@@H]1Cc2ccccc2CN1C(=O)[C@H](CC(=O)O)NC(=O)[C@H](C)NC(=O)[C@@H](N)CS)C(=O)N[C@@H](CS)C(=O)N[C@@H](Cc1ccc(O)cc1)C(=O)N[C@@H](Cc1c[nH]c2ccccc12)C(=O)N[C@@H](Cc1cnc[nH]1)C(=O)N[C@H](C(=O)N[C@@H](Cc1ccccc1)C(=O)NCC(N)=O)[C@@H](C)O",
    "IC50": "> 1000 nM"
  },
  {
    "compound": "CC1CSC[C@@H](C(=O)N[C@@H](Cc2ccc(O)cc2)C(=O)N[C@@H](Cc2c[nH]c3ccccc23)C(=O)N[C@@H](CCCNC(=N)N)C(=O)N[C@@H](CCC(=O)O)C(=O)N[C@@H](CC(N)=O)C(=O)NCC(=O)NCCOCC(=O)N[C@H](CCCCN)C(N)=O)NC(=O)[C@H](CCC(N)=O)NC(=O)[C@H](Cc2c[nH]c3ccccc23)NC(=O)[C@H](CC(=O)O)NC(=O)[C@H](CCC(N)=O)NC1=O (stereo partly specified)",
    "IC50": "6000 nM"
  },
  {
    "compound": "COc1ccc(C[C@H](NC(=O)[C@@H]2CSCC[C@H](NC(C)=O)C(=O)N[C@@H](CCC(N)=O)C(=O)N[C@@H]([C@@H](C)O)C(=O)N[C@@H](Cc3c[nH]c4ccccc34)C(=O)N[C@@H](CCC(N)=O)C(=O)N2)C(=O)N[C@@H](Cc2c[nH]c3ccccc23)C(=O)N[C@@](C)(CCCCN)C(=O)N[C@@H](CCCCNC(C)=O)C(=O)N[C@@H](CC(N)=O)C(=O)NCC(N)=O)cc1",
    "IC50": "10 to 25 nM"
  },
  {
    "compound": "CC(=O)N[C@H]1CCSC[C@@H](C(=O)N[C@@H](Cc2ccc(OCCN)cc2)C(=O)N[C@@H](Cc2ccc3ccccc3c2)C(=O)NC(C)(C)C(=O)N[C@@H](CCC(N)=O)C(=O)N[C@@H](CC(N)=O)C(=O)NCC(N)=O)NC(=O)[C@H](CCC(N)=O)NC(=O)[C@H](Cc2c[nH]c3ccccc23)NC(=O)[C@H]([C@@H](C)O)NC(=O)[C@H](CCC(N)=O)NC1=O (Ac-[Abu(4-yl)]QTWQC[AEF][2Nal][Aib]QNG-NH2; thioether 1-6)",
    "IC50": "< 10 nM"
  }
]

Let us examine a further case.
**Query** Output reported IC50 of the compound "CC(C)[C@H](NC(=O)[C@H](Cc1c[nH]c2ccccc12)NC(=O)[C@H](CC(=O)O)NC(=O)[C@H](C)NC(=O)[C@@H](N)CS)C(=O)N[C@@H](CS)C(=O)N[C@@H](Cc1ccc(O)cc1)C(=O)N[C@@H](Cc1cccc2ccccc12)C(=O)N[C@@H](Cc1cnc[nH]1)C(=O)N(C)CC(=O)N[C@@H](Cc1ccccc1)C(=O)O" on Interleukin-23 receptor (Homo sapiens, UniProt Q5VWK5).
**Result** > 1000 nM
